Each entry below carries its recorded EC50 of receptor-mediated cAMP synthesis, GIPR (nM), 03/25.
Biological target: T1, human GIP receptor (human, UniProt P48546 22-466)
T1 sequence (looked up): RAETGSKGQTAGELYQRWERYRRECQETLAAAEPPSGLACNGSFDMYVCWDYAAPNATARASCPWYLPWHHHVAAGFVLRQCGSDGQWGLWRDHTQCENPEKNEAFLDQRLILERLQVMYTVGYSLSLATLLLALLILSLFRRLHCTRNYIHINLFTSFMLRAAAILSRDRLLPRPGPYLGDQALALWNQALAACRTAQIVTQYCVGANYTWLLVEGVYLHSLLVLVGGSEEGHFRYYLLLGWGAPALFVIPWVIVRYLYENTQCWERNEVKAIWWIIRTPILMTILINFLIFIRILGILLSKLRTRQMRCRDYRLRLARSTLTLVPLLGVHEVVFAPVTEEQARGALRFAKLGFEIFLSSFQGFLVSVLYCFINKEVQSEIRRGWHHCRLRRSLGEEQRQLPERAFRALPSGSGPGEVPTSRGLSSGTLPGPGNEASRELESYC
Test: cell-based or functional assay
Bridge positions count the residues as written; N and C are the ends. Square brackets hold non-standard residues; d marks the D form. Ends that are not written are not given here. C20L5A = not defined here; Aib = CC(C)(N)C(=O)O
Dear colleague, please return just the value in nM, with no unit written.

Past entries and their recorded results:
binder	readoutValue
Y[Aib]EGTFTSDYSIYKDKQAA[Aib]KFVNWLLAGGPSSGAPPPS-NH2 (bridge 14-21; not fully specified (bridges); also: K4 staple carries PEG-fatty acid) [mCMD307 (2050-K4)]	0.01
Y[Aib]EGTFTSDYSIYLDKCAA[Aib]EFVCWLIAGGPSSGAPPPS-NH2 (linker 17-24 via C20L5A; not fully specified; reading uncertain) [mCMV268 (27I, C(17-24)-C20L5A)]	0.04
Y[Aib]EGTFTSDYSIYCDKQAA[Aib]CFVNWLIAGGPSSGAPPPS-NH2 (linker 14-21 via C20L5A; not fully specified; reading uncertain) [mCMV266 (27I, C(14-21)-C20L5A)]	0.06
Y[Aib]EGTFTSDYSIYCDKQAA[Aib]CFVNWLLAGGPSSGAPPPS-NH2 (linker 14-21 via C20L5A; reading uncertain) [C(14-21)-C20L5A]	0.04
Y[Aib]EGTFTSDYSIYLDKCAA[Aib]EFVCWLLAGGPSSGAPPPS-NH2 (linker 17-24 via C20L5A; not fully specified; reading uncertain) [C(17-24)-C20L5A]	0.02
Y[Aib]EGTYTSDYSIYCDKQAA[Aib]CFVNWLIAGGPSSGAPPPS-NH2 (linker 14-21 via C20L5A; not fully specified; reading uncertain) [6Y, 27I, C(14-21)-C20L5A]	0.58

Let us examine a further case.
Recorded EC50 of receptor-mediated cAMP synthesis, GIPR (nM), 03/25 (binder Y[Aib]EGTYTSDYSIYLDKCAA[Aib]EFVCWLIAGGPSSGAPPPS-NH2 (linker 17-24 via C20L5A; not fully specified; reading uncertain) [6Y, 27I, C(17-24)-C20L5A] ): 0.27
